These measurements were taken from the supplement of paper PMC6555819.

system: PPARg:RXRa DBDmut IVT, anti-RXR (DBD mutation: RXRa K156A/R161A, NR concentration 270 nM, RXRa partner concentration 90 nM); test: PBM binding z-score (relative to random genomic background probes); higher = stronger binding; sequences stand for … in GC…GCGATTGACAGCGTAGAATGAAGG
Label scheme for PBM binding z-score: lower than 0.8 is not met, 0.8 and above is met.

1. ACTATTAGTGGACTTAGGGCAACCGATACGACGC; not met
2. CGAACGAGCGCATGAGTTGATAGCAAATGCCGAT; not met
3. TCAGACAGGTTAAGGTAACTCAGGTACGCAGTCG; met

Check this sequence for PBM binding z-score at or above 0.8: "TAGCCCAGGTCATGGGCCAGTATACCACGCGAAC"
not met

Tell me whether PBM binding z-score is at least 0.8 here: "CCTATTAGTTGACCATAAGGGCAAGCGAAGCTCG"
not met

Has "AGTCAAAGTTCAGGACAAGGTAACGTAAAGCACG" a recorded PBM binding z-score greater than or equal to 0.8?
not met

Could you please find out whether "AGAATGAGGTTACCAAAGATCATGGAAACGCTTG" has PBM binding z-score that meets 0.8 or exceeds it?
met

Does "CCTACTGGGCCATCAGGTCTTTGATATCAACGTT" have a reported PBM binding z-score of at least 0.8?
met

Confirm if PBM binding z-score reported for the sequence "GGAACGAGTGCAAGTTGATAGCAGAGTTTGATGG" is 0.8 or above.
not met

Given the entry "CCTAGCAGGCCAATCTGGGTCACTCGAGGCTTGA" , answer whether its PBM binding z-score meets or surpasses 0.8.
met
